Test system: E18 rat cortical neuron-glia co-culture
PROCEDURE DETAILS: myelination (MBP fiber length per Olig2+ nucleus), % of 1 µM DAPT response (DMSO = 0) (% of DAPT); higher = more myelination, active = 50 or more
STUDY CONDITIONS: 1 µM; treatment time: 8 days (DIV5-DIV13)
TEST READOUT: myelination
The answer should be written as a number, with no unit following it.

Request: // lookup myelination | system=E18 rat cortical neuron-glia co-culture | key= Clc1ccc(CO/N=C(\Cn2ccnc2)c2ccc(Cl)cc2Cl)c(Cl)c1 [Oxiconazole]
Response: -25.1

Request: // lookup myelination | system=E18 rat cortical neuron-glia co-culture | key= Cc1ccc(-c2cc(C(F)(F)F)nn2-c2ccc(S(N)(=O)=O)cc2)cc1 [Celecoxib]
Response: -5.22

Request: // lookup myelination | system=E18 rat cortical neuron-glia co-culture | key= O=C1N(c2ccccc2)c2ccccc2C1(Cc1ccncc1)Cc1ccncc1 [Linopirdine]
Response: -4.06

Request: // lookup myelination | system=E18 rat cortical neuron-glia co-culture | key= Nc1nnc(-c2cccc(Cl)c2Cl)c(N)n1 [Lamotrigine]
Response: -23.5

Request: // lookup myelination | system=E18 rat cortical neuron-glia co-culture | key= OCCN1CCN(CCCN2c3ccccc3Sc3ccc(Cl)cc32)CC1 [Perphenazine]
Response: -21.7

Request: // lookup myelination | system=E18 rat cortical neuron-glia co-culture | key= Cc1nnc(SCC2=C(C(=O)O)N3C(=O)[C@@H](NC(=O)Cn4cnnn4)[C@H]3SC2)s1 [Cefazolin]
Response: -6.67

Request: // lookup myelination | system=E18 rat cortical neuron-glia co-culture | key= C[C@@H]1C[C@H]2[C@@H]3C[C@H](F)C4=CC(=O)C=C[C@]4(C)[C@@]3(F)[C@@H](O)C[C@]2(C)[C@@]1(O)C(=O)SCF [Fluticasone]
Response: -47.4

Request: // lookup myelination | system=E18 rat cortical neuron-glia co-culture | key= c1ccc2c(CC3=NCCN3)cccc2c1 [Naphazoline]
Response: 13.7

Request: // lookup myelination | system=E18 rat cortical neuron-glia co-culture | key= COc1cc(-c2ccc(=O)[nH]n2)ccc1OC(F)F [Zardaverine]
Response: -34.6

Request: // lookup myelination | system=E18 rat cortical neuron-glia co-culture | key= Nc1c2c(nc3ccccc13)CCCC2 [Tacrine]
Response: -9.65

Request: // lookup myelination | system=E18 rat cortical neuron-glia co-culture | key= CC(=O)OCC(=O)[C@@]1(O)CC[C@H]2[C@@H]3CCC4=CC(=O)C=C[C@]4(C)[C@H]3[C@@H](O)C[C@@]21C [Prednisolone acetate]
Response: -5.64

Request: // lookup myelination | system=E18 rat cortical neuron-glia co-culture | key= NCC(=O)CCC(=O)O [Aminolevulinic Acid]
Response: 0.461

Request: // lookup myelination | system=E18 rat cortical neuron-glia co-culture | key= C[C@H]1C[C@H]2[C@@H]3CCC4=CC(=O)C=C[C@]4(C)[C@@]3(Cl)[C@@H](O)C[C@]2(C)[C@@]1(O)C(=O)CO [Beclomethasone]
Response: -2.48

Request: // lookup myelination | system=E18 rat cortical neuron-glia co-culture | key= CN(C)CCOC(C)(c1ccccc1)c1ccccn1 (centres undefined) [Doxylamine]
Response: -13.6

Request: // lookup myelination | system=E18 rat cortical neuron-glia co-culture | key= CN(CCO)CC(O)Cn1cnc2c1c(=O)n(C)c(=O)n2C (centres undefined) [Jupal]
Response: -7.05

Request: // lookup myelination | system=E18 rat cortical neuron-glia co-culture | key= Nc1nc(N)nc(-c2cc(Cl)ccc2Cl)n1 [Irsogladine]
Response: -14.2

Request: // lookup myelination | system=E18 rat cortical neuron-glia co-culture | key= CC(Cc1ccccc1)(NC(=O)CN)c1ccccc1 (centres undefined) [Remacemide]
Response: -12.4

Request: // lookup myelination | system=E18 rat cortical neuron-glia co-culture | key= C[C@]12CCC(=O)C=C1CC[C@@H]1[C@@H]2[C@@H](O)C[C@@]2(C)[C@H]1CC[C@]2(O)C(=O)CO [Hydrocortisone]
Response: -10.9

Request: // lookup myelination | system=E18 rat cortical neuron-glia co-culture | key= O=C(NCCN1CCOCC1)c1ccc(Cl)cc1 [Moclobemide]
Response: -22.1

Each recorded value in this set is attributed to the supplement of paper PMC4840960.
